Where do the numbers come from? From PubChem BioAssay.

Task for the reader: assign each of the following compounds its reported growth inhibition.
assay_name: antimalarial activity against Dd2 strain (AID 2302);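 note: 0% = DMSO untreated growth and 100% = chloroquine plus artemisinin killed control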
condition_details: P. falciparum Dd2 in RBCs, LDH growth readout, 72 h; at 2 µM; hits give high values
Please respond with the number in % and leave the unit unwritten.

Need growth inhibition, item COc1ccc(Cl)cc1NC(=O)C(C)Nc1ccc(-c2ccccc2)cc1 (stereo not given)
89

Need growth inhibition, item `Cc1cccc2[nH]c(-c3ccc(-c4cccc(CNC5CCN(C)CC5)c4)s3)nc12`
73

Need growth inhibition, item CC1CN(c2ccc(C(=O)NCC3CC3)cc2NC(=O)OCc2ccccc2)CC(C)O1 (stereo not given)
76

Need growth inhibition, item `COc1ccc(N2CCc3c(-c4cccc5cnccc45)cc(C)nc32)c(C)c1`
-12

Need growth inhibition, item `COc1ccc(-c2nc3c(N)nc(N)nc3nc2C(C)C)cc1`
-4

Need growth inhibition, item `Cc1ccc(C(=O)Nc2ccc(Nc3ccnc4cc(-c5ccccn5)ccc34)cc2O)cc1`
100

Need growth inhibition, item `Cc1ccc(-n2cc(CNCC3CCN(CCO)CC3)c(-c3ccc(F)cc3)n2)cc1`
18

Need growth inhibition, item `COc1cccc(NC(=O)NCCNc2ccnc(Nc3ccc(F)cc3)n2)c1`
1

Need growth inhibition, item `C[C@H](Cc1ccc(OCCCOc2ccc(C[C@@H](C)NC[C@H](O)c3cccc(Cl)c3)cc2)cc1)NC[C@H](O)c1cccc(Cl)c1`
92

Need growth inhibition, item `Nc1nc(N)c2c(Cl)c(N(Cc3ccccc3)Cc3ccccc3)ccc2n1`
2

Need growth inhibition, item `Cc1cccc(-c2nn(-c3ccccc3)c3[nH]c(=O)c(CNC4CCCC4)cc23)c1`
97

Need growth inhibition, item `N#Cc1ccc(N(CCOc2ccc(Cl)c(F)c2)Cc2ccccc2C(F)(F)F)cc1C(F)(F)F`
43

Need growth inhibition, item `CN1CCN(Cc2ccc(OCc3cccc(COc4ccc(CN5CCN(C)CC5)cc4I)c3)c(I)c2)CC1`
69

Need growth inhibition, item `CCc1cn2c3c(cc(C(=O)N[C@@H](Cc4ccccc4)[C@H](O)CNC(C)(C)c4cccc(OC)c4)cc13)N(C)S(=O)(=O)C2`
99

Need growth inhibition, item `CCOc1ccc(/C=C/C(=O)Nc2cccc3c2CCN(C)C3)cc1`
3

Need growth inhibition, item `CC(C)(CC1CCCCC1)NC(=O)[C@H](CC1CCCCC1)Nc1ccc(C#N)c2ccccc12`
52

Need growth inhibition, item `Cc1cc(NN=CC=Cc2ccccc2)c2ccccc2n1`
69

Need growth inhibition, item COc1ccc(CCC(C)(C)NCC(O)c2cccc(C(F)(F)F)c2)cc1 (stereo not given)
98

Need growth inhibition, item `Clc1nc2ccccn2c1C=Cc1ccc2ccccc2n1`
75

Need growth inhibition, item `O=C(Nc1nccs1)c1cn(-c2ccccc2)nc1-c1ccc(Cl)s1`
18

----------
target_system: Protein kinase 7 (PK7), Plasmodium falciparum 3D7 (PF3D7_0213400)
assay_name: inhibition of Plasmodium PK7 catalytic activity – biochemical, TCAMS antimalarial set, Kinase-Glo luminescence (AID 1159587)
condition_details: recombinant PfPK7, Kinase-Glo ATP depletion luminescence
Calls of active or inactive are those of the source. No rule for the calls is given here.
parameter: outcome

* Cc1cc(OCCCN2CCC(NS(=O)(=O)c3ccc(Cl)c(Cl)c3)C2)c2ccccc2n1 (centres undefined) | inactive
* Cc1cccc2[nH]c(-c3cccc(-c4ccc(NC(=O)C5CCCO5)cc4)c3)nc12 (centres undefined) | inactive
* COc1ccc2nc(NC3=NC(c4ccccn4)(c4ccccn4)C(=O)N3C)[nH]c2c1 | inactive
* COc1ccc(-c2cnc3[nH]cc(-c4ccc(C(=O)O)c(C)c4)c3c2)cn1 | inactive

Protein kinase 7 (PK7), Plasmodium falciparum 3D7 (PF3D7_0213400) / outcome / COc1ccc(C(C(=O)NC2CCN(C[C@H](O)c3ccnc4ccc(OC)cc34)CC2)N2CCN(c3ccc(F)cc3)CC2)cc1 (some centres undefined) : value?
inactive

Protein kinase 7 (PK7), Plasmodium falciparum 3D7 (PF3D7_0213400) / outcome / `COc1ccc(Nc2ccnc3cc(Cl)ccc23)cc1OC` : value?
inactive

Protein kinase 7 (PK7), Plasmodium falciparum 3D7 (PF3D7_0213400) / outcome / `CCN(CC)CCN(Cc1ccc(-c2ccc(C(F)(F)F)cc2)cc1)C(=O)Cn1c(CCc2cc(F)ccc2F)nc(=O)c2ccccc21` : value?
inactive

Protein kinase 7 (PK7), Plasmodium falciparum 3D7 (PF3D7_0213400) / outcome / `Cc1cc(N[C@@H](CC(C)C)C(=O)NCCc2ccccc2)nc(NCCc2cccs2)n1` : value?
inactive

Protein kinase 7 (PK7), Plasmodium falciparum 3D7 (PF3D7_0213400) / outcome / `CCN(CC)CCN(Cc1ccc(-c2ccc(C(F)(F)F)cc2)cc1)C(=O)Cn1cc(CCCCc2cccc(F)c2F)c(=O)c2ccccc21` : value?
inactive

Protein kinase 7 (PK7), Plasmodium falciparum 3D7 (PF3D7_0213400) / outcome / `COc1cc(Cc2cnc(N)nc2N)cc(OCCCN2C(=O)c3ccccc3C2=O)c1OC` : value?
inactive

Protein kinase 7 (PK7), Plasmodium falciparum 3D7 (PF3D7_0213400) / outcome / CCOCCCn1c(=N)c(C(=O)NC(C)c2ccccc2)cc2c(=O)n3cccc(C)c3nc21 (centres undefined) : value?
inactive

Protein kinase 7 (PK7), Plasmodium falciparum 3D7 (PF3D7_0213400) / outcome / `NC(=S)Cc1ccc2c(c1)OCO2` : value?
inactive

Protein kinase 7 (PK7), Plasmodium falciparum 3D7 (PF3D7_0213400) / outcome / `CNCCCNc1ccnc2cc(Cl)ccc12` : value?
inactive

Protein kinase 7 (PK7), Plasmodium falciparum 3D7 (PF3D7_0213400) / outcome / CCCCn1c(C(C)Oc2ccc(Cl)cc2Cl)nc2cc(S(N)(=O)=O)ccc21 (centres undefined) : value?
inactive

Protein kinase 7 (PK7), Plasmodium falciparum 3D7 (PF3D7_0213400) / outcome / COc1cc2c(c(Cl)c1OC)CCN(Cc1ccccc1)CC2c1ccc(C(N)=O)cc1 (centres undefined) : value?
inactive

Protein kinase 7 (PK7), Plasmodium falciparum 3D7 (PF3D7_0213400) / outcome / `COc1cccc(OC)c1CN1CCC(N(C)CCCCCCCCCN2CCC(OC(=O)Nc3ccccc3-c3ccccc3)CC2)CC1` : value?
inactive

Protein kinase 7 (PK7), Plasmodium falciparum 3D7 (PF3D7_0213400) / outcome / `COc1ccc2nc3cc(Cl)ccc3c(NCCO)c2c1` : value?
inactive

Protein kinase 7 (PK7), Plasmodium falciparum 3D7 (PF3D7_0213400) / outcome / `N#Cc1ccc(C=NNc2nc3ccccc3[nH]2)cc1` : value?
inactive

Protein kinase 7 (PK7), Plasmodium falciparum 3D7 (PF3D7_0213400) / outcome / `O=C(NCCN1CCCCC1)c1cc2cc(-c3ccccc3)ccc2n1S(=O)(=O)c1ccccc1` : value?
inactive

Protein kinase 7 (PK7), Plasmodium falciparum 3D7 (PF3D7_0213400) / outcome / `CC(=O)NCCNc1cc(N2CCc3ncnc(Nc4ccc(OCc5c(F)cccc5F)c(Cl)c4)c3C2)ncn1` : value?
inactive

Protein kinase 7 (PK7), Plasmodium falciparum 3D7 (PF3D7_0213400) / outcome / `Cc1cc(N)nc2ccc(-c3ccc(CCN)cc3)cc12` : value?
inactive

----------
target_system: Calcium-dependent protein kinase 4 (Plasmodium falciparum (isolate 3D7)) (UniProt Q8IBS5)
Sequence (Q8IBS5 whole entry, looked up): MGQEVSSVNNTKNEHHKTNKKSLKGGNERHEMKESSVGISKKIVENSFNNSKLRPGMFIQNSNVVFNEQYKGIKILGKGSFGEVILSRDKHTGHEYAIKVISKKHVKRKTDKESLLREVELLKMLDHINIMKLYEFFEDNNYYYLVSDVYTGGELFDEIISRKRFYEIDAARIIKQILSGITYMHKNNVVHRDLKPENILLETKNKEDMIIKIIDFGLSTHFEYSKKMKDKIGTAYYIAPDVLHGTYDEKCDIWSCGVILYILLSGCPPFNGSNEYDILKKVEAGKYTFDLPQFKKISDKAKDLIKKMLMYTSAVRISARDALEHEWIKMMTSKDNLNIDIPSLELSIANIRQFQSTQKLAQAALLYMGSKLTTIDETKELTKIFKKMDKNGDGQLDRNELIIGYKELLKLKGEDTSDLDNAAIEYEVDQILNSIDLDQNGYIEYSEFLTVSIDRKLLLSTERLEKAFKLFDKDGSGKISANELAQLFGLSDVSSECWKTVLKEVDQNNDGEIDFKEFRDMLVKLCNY
assay_name: PfCDPK4 kinase inhibitors, biochemical, TCAMS library (AID 1159588)
condition_details: recombinant PfCDPK4, Kinase-Glo ATP depletion luminescence
Entries with a potency or affinity are not part of this list. Calls of active or inactive are those of the source. The limit is not given here; nearly all actives have IC50 up to about 0.91 µM.
parameter: outcome

Consider the worked cases shown below.
- CC(=O)Nc1ccc(CN(Cc2cccc(OC(C)(C)C)c2)Cc2ccc3c(c2)OCCO3)cc1: inactive
- COc1cccc(NC(=O)NCCNc2ccnc(Nc3ccc(F)cc3)n2)c1: inactive
- COCn1ccc2c3c(N)nc(N)nc3ccc21: inactive
- CCCCc1ccc(CCNCCCCCCNCCc2ccc(O)c(O)c2)cc1: inactive
- CCCCCN1CCCC(NS(=O)(=O)c2cccc(C(=O)Nc3cccc(C(F)(F)F)c3)c2)C1 (stereo not given): inactive
- OC(CN(Cc1ccccc1)Cc1ccccc1)Cn1c2ccc(Cl)cc2c2cc(Cl)ccc21 (stereo not given): inactive

// next item, outcome requested
Calcium-dependent protein kinase 4 (Plasmodium falciparum (isolate 3D7)) (UniProt Q8IBS5) / outcome / `Cc1ncccc1C(=O)Nc1ccc(-c2cccc(-c3nc4c(C)cccc4[nH]3)c2)cc1` : value?
inactive

----------
Task for the reader: assign each of the following compounds its reported growth inhibition.
assay_name: inhibition of 3D7 malaria parasite growth – strain 3D7 (AID 2306);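 note: 0% = DMSO wells and 100% = chloroquine plus artemisinin control wells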
condition_details: P. falciparum 3D7 erythrocytic growth, LDH absorbance, 72 h; at 2 µM; hits give high values
Please respond with the number in % and leave the unit unwritten.

Need growth inhibition, item `Clc1ccc2c(NCCc3ccccc3)ccnc2c1`
93

Need growth inhibition, item `Fc1ccc2nc(-c3cccc(-c4ccc(CNCCN5CCNCC5)cc4)c3)[nH]c2c1`
90

Need growth inhibition, item `COc1ccc(Nc2cc(C)nc(NCc3ccc4c(c3)OCO4)n2)cc1`
99

Need growth inhibition, item `O=C(/C=C/c1ccc(Cl)c(Cl)c1)NCCCCCN1CCC(NC(=O)c2ccc(F)c(F)c2)CC1`
99

Need growth inhibition, item `O=C(NCC1CCN(CCN2CCC(c3cn(CCO)c4ccccc34)CC2)CC1)c1ccc(-c2ccc(C(F)(F)F)cc2)cc1`
101

Need growth inhibition, item CCOc1cc(Cl)c(C(C)NC(=O)c2cccc(OC)c2)cc1OCC (centres undefined)
98

Need growth inhibition, item `COc1ccc(OCCCN2CCCCC2)cc1S(=O)(=O)c1ccc(OCc2ccc(C(F)(F)F)cc2)cc1`
94

Need growth inhibition, item `O=C(Nc1cc(C(F)(F)F)cc(C(F)(F)F)c1)Nc1cc(C(F)(F)F)cc(C(F)(F)F)c1`
97

Need growth inhibition, item CC1CN(Cc2cccc(F)c2)CCN1c1ccc(NC(=O)c2ccc(F)cc2)cc1 (centres undefined)
96
